# EXPERIMENTAL_SYSTEM: Human BCL-XL protein (N-terminal HiBiT tagged BCL-XL expressed in HT1080 cells) (Homo sapiens, UniProt Q07817)
# Construct: expressed in transfected cells; host or cells: HT-1080 (ATCC CCL-121), stably transduced with lentivirus pLV-UBC-N-HiBiT-BCL-XL-PGK-puro and selected with puromycin
# Sequence (Q07817 whole entry): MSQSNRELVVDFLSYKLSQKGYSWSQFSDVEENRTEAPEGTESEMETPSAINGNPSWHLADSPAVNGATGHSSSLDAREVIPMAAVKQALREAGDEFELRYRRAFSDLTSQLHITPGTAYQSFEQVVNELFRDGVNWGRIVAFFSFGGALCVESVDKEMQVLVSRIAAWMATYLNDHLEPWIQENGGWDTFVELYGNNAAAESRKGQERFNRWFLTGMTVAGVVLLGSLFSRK
# PROTOCOL_NOTES: HiBiT Based Degradation Assay
# Assay type: cell-based
# RUN_PARAMETERS: BCL-XL degradation, HT1080 cells expressing N-HiBiT-BCL-XL, 24 hours incubation, normalized with DMSO control; geometric mean for multiple data points; read-out: EC50 (24 h)
# Method: HiBiT Based Degradation Assay Human BCL-XL protein coding open reading frame fused with N-terminal HiBiT coding sequence (N-HiBiT-BCL-XL) was synthesized from Integrated DNA Technologies (IDT). Next, N-HiBiT-BCL-XL sequence was cloned into pLV-UBC-PGK-Puro, a lentivirus plasmid purchased from Vectorbuilder, to generate pLV-UBC-N-HiBiT-BCL-XL-PGK-puro. […] After incubation, luminescence was read on a PHERAstar FSX Plate Reader (BMG). […]
READOUT_LABEL: DC50

In: Using the record for Cc1cc(OC2CC3(CCN(CC(=O)Nc4ccc5c(C6CCC(=O)NC6=O)nn(C)c5n4)CC3)C2)ccc1-c1ccc(N2CCc3cccc(C(=O)Nc4nc5ccccc5s4)c3C2)nc1C(=O)O (stereo not drawn) , report its DC50.
Out: < 10 nM

In: # lookup: DC50 of Cc1cc2c(C3CCC(=O)NC3=O)nn(C)c2cc1NC(=O)CN1CCC2(CC1)CC(COc1cccc(-c3ccc(N4CCc5cccc(C(=O)Nc6nc7ccccc7s6)c5C4)nc3C(=O)O)c1C)C2 (stereo not drawn)
Out: 100 to 1000 nM

In: Request the reported DC50 associated with C[C@H](COc1ccc(-c2ccc(N3CCc4cccc(C(=O)Nc5nc6ccccc6s5)c4C3)nc2C(=O)O)c(C(F)(F)F)c1)CC1CCN(CC(=O)Nc2ccc3c(C4CCC(=O)NC4=O)nn(C)c3c2)CC1 (single isomer, unassigned) [Compound 130b]
Out: 10 to 100 nM

In: Which DC50 is reported for this molecule? COc1c(NC(=O)CN2CC[C@H](CCCOc3ccc(-c4ccc(N5CCc6cccc(C(=O)Nc7nc8ccccc8s7)c6C5)nc4C(=O)O)c(C)c3)C[C@@H]2C)ccc2c(C3CCC(=O)NC3=O)nn(C)c12 (stereo partly drawn) [Compound 210b]
Out: 10 to 100 nM

In: Given the molecule C[C@@H]1CC(CCCOc2cccc(-c3ccc(N4CCc5cccc(C(=O)Nc6nc7ccccc7s6)c5C4)nc3C(=O)O)c2C(F)(F)F)CCN1CC(=O)Nc1ccc2c(C3CCC(=O)NC3=O)nn(C)c2c1 (stereo partly drawn) [Compound 215d] , what is its reported DC50?
Out: 10 to 100 nM

In: I am curious: what DC50 value has been reported for Cn1nc(C2CCC(=O)NC2=O)c2ccc(NC(=O)CN3CCC4(CC3)CC(Oc3ccc(-c5ccc(N6CCc7cccc(C(=O)Nc8nc9ccccc9s8)c7C6)nc5C(=O)O)c(C(F)(F)F)c3)C4)nc21 (stereo not drawn) ?
Out: 10 to 100 nM

In: Endpoint output: DC50 of Cc1cc(OCC2CC3(CCN(CC(=O)Nc4ccc5c(C6CCC(=O)NC6=O)nn(C)c5c4C(F)(F)F)CC3)C2)ccc1-c1ccc(N2CCc3cccc(C(=O)Nc4nc5ccccc5s4)c3C2)nc1C(=O)O (stereo not drawn) . Value?
Out: 10 to 100 nM

In: Fill blank: measured DC50 of the molecule Cn1nc(C2CCC(=O)NC2=O)c2ccc(NC(=O)CN3CCC4(CC3)CC(COc3ccc(-c5ccc(N6CCc7cccc(C(=O)Nc8nc9ccccc9s8)c7C6)nc5C(=O)O)c(C(F)(F)F)c3)C4)c(F)c21 (stereo not drawn) is ____.
Out: 10 to 100 nM

In: Param item = Cn1nc(C2CCC(=O)NC2=O)c2ccc(NC(=O)CN3CCC4(CCC(Oc5cccc(-c6ccc(N7CCc8cccc(C(=O)Nc9nc%10ccccc%10s9)c8C7)nc6C(=O)O)c5C(F)(F)F)CC4)CC3)cc21 (stereo not drawn) ; retrieve measured DC50.
Out: < 10 nM

In: Param item = Cc1c(NCCCC2CCN(CC(=O)Nc3ccc4c(C5CCC(=O)NC5=O)nn(C)c4c3)CC2)cccc1-c1ccc(N2CCc3cccc(C(=O)Nc4nc5ccccc5s4)c3C2)nc1C(=O)O (stereo not drawn) ; retrieve measured DC50.
Out: < 10 nM

In: Quick check: DC50 of Cc1cc(O[C@H](C)CCC2CCN(CC(=O)Nc3ccc4c(C5CCC(=O)NC5=O)nn(C)c4c3F)CC2)ccc1-c1ccc(N2CCc3cccc(C(=O)Nc4nc5ccccc5s4)c3C2)nc1C(=O)O (single isomer, unassigned) [Compound 224b] ?
Out: 10 to 100 nM

In: Any idea what its DC50 is? The molecule is C[C@@H](CCC1CCN(CC(=O)Nc2ccc3c(C4CCC(=O)NC4=O)nn(C)c3c2)CC1)Oc1ccc(-c2ccc(N3CCc4cccc(C(=O)Nc5nc6ccccc6s5)c4C3)nc2C(=O)O)c(C(F)(F)F)c1 (single isomer, unassigned) [Compound 138a]
Out: < 10 nM

In: DC50 for Cn1nc(C2CCC(=O)NC2=O)c2ccc(NC(=O)CN3CCC4(CC3)CC(Oc3ccc(-c5ccc(N6CCc7ccnc(C(=O)Nc8nc9ccccc9s8)c7C6)nc5C(=O)O)c(C(F)(F)F)c3)C4)cc21 (stereo not drawn) ?
Out: < 10 nM

In: Name the reported DC50 value associated with the molecule COc1c(NC(=O)CN2CCC(CCCOc3cccc(-c4ccc(N5CCc6ccnc(C(=O)Nc7nc8ccccc8s7)c6C5)nc4C(=O)O)c3C(F)(F)F)CC2)ccc2c(C3CCC(=O)NC3=O)nn(C)c12 (stereo not drawn)
Out: 10 to 100 nM

In: Could you tell me which DC50 is on file for Cc1c(OCCC[C@H]2CCN(CC(=O)Nc3ccc4c(C5CCC(=O)NC5=O)nn(C)c4c3)[C@H](C)C2)cccc1-c1ccc(N2CCc3ccnc(C(=O)Nc4nc5ccccc5s4)c3C2)nc1C(=O)O (stereo partly drawn) [Compound 216c] ?
Out: 10 to 100 nM

In: Entry Cn1nc(C2CCC(=O)NC2=O)c2ccc(NC(=O)CN3CCC4(CCC(Oc5ccc(-c6ccc(N7CCc8cccc(C(=O)Nc9nc%10ccccc%10s9)c8C7)nc6C(=O)O)c(C(F)(F)F)c5)CC4)CC3)cc21 (stereo not drawn) : reported DC50 = ?
Out: < 10 nM

In: Using the record for Cn1nc(C2CCC(=O)NC2=O)c2ccc(NC(=O)CN3CCC(CCCOc4cccc(-c5ccc(N6CCc7cccc(C(=O)Nc8nc9ccccc9s8)c7C6)nc5C(=O)O)c4C(F)(F)F)CC3)nc21 (stereo not drawn) , report its DC50.
Out: 10 to 100 nM

In: Entry Cc1c(OCC2CC3(CCN(CCCc4ccc5c(C6CCC(=O)NC6=O)nn(C)c5c4)CC3)C2)cccc1-c1ccc(N2CCc3cccc(C(=O)Nc4nc5ccccc5s4)c3C2)nc1C(=O)O (stereo not drawn) : reported DC50 = ?
Out: < 10 nM

# credit: patent US20260216170A1
